Recorded Kd by entry
biological target: dpp promoter region; assay: Gel mobility shift assay of CodY binding to the dpp promoter region; conditions: read-out: Estimated KD (nM), No effectors; CodY concentration that shifted 50% of the DNA

# molecule, Kd
measured = [
    ("V218A (protein, UniProt P39779 2-259, looked up, variant V218A) Global transcriptional …: ALLQKTRIINSMLQAAAGKPVNFKEMAETLRDVIDSNIFVVSRRGKLLGYSINQQIENDRMKKMLEDRQFPEEYTKNLFNVPETSSNLDINSEYTAFPVENRDLFQAGLTTIVPIIGGGERLGTLILSRLQDQFNDDDLILAEYGATVVGMEILREKAEEIEEEARSKAVVQMAISSLSYSELEAIEHIFEELDGNEGLLVASKIADRVGITRSVIANALRKLESAGVIESRSLGMKGTYIKVLNNKFLIELENLKSH", "250 to 500 nM"),
    ("R214E (protein, UniProt P39779 2-259, looked up, variant R214E) Global transcriptional …: ALLQKTRIINSMLQAAAGKPVNFKEMAETLRDVIDSNIFVVSRRGKLLGYSINQQIENDRMKKMLEDRQFPEEYTKNLFNVPETSSNLDINSEYTAFPVENRDLFQAGLTTIVPIIGGGERLGTLILSRLQDQFNDDDLILAEYGATVVGMEILREKAEEIEEEARSKAVVQMAISSLSYSELEAIEHIFEELDGNEGLLVASKIADRVGITESVIVNALRKLESAGVIESRSLGMKGTYIKVLNNKFLIELENLKSH", "> 500 nM"),
    ("A207D (protein, UniProt P39779 2-259, looked up, variant A207D) Global transcriptional …: ALLQKTRIINSMLQAAAGKPVNFKEMAETLRDVIDSNIFVVSRRGKLLGYSINQQIENDRMKKMLEDRQFPEEYTKNLFNVPETSSNLDINSEYTAFPVENRDLFQAGLTTIVPIIGGGERLGTLILSRLQDQFNDDDLILAEYGATVVGMEILREKAEEIEEEARSKAVVQMAISSLSYSELEAIEHIFEELDGNEGLLVASKIDDRVGITRSVIVNALRKLESAGVIESRSLGMKGTYIKVLNNKFLIELENLKSH", "> 500 nM"),
]

// next entry
Query: Give the measured Kd of WT: wild-type B. subtilis CodY, a GTP-activated repressor protein (protein) ALLQKTRIINSMLQAAAGKPVNFKEMAETLRDVIDSNIFVVSRRGKLLGYSINQQIENDRMKKMLEDRQFPEEYTKNLFNVPETSSNLDINSEYTAFPVENRDLFQAGLTTIVPIIGGGERLGTLILSRLQDQFNDDDLILAEYGATVVGMEILREKAEEIEEEARSKAVVQMAISSLSYSELEAIEHIFEELDGNEGLLVASKIADRVGITRSVIVNALRKLESAGVIESRSLGMKGTYIKVLNNKFLIELENLKSH .
Response: 150 nM
